test: Clearance in rat at 1 mg/kg, iv or 5 mg/kg, po by LC-MS/MS analysis; assay type: ADME, organism-based; conditions: in vivo
reported-endpoint: clearance (mL/min/kg)
Quick note: give the figure in mL/min/kg, leave out the unit.

Just so you know, measured clearance for Cc1ccc(-c2c3c(nc(C)c2[C@H](OC(C)(C)C)C(=O)O)CCN(C(=O)CCc2ccccc2)C3)cc1 came out at 163

Just so you know, measured clearance for Cc1nc2c(c(-c3cc(F)c4c(c3C)CCCO4)c1[C@H](OC(C)(C)C)C(=O)O)CN(CCCc1ccc(F)cc1)CC2 came out at 92

Just so you know, measured clearance for Cc1nc2c(c(-c3cc(F)c4c(c3C)CCCO4)c1[C@H](OC(C)(C)C)C(=O)O)CN(CCCc1ccccc1)CC2 came out at 82

Just so you know, measured clearance for Cc1ccc(-c2c3c(nc(C)c2[C@H](OC(C)(C)C)C(=O)O)CCN(c2ccccc2)C3)cc1 came out at 24

Just so you know, measured clearance for Cc1ccc(-c2c3c(nc(C)c2[C@H](OC(C)(C)C)C(=O)O)CCN(C(=O)OCc2ccccc2)C3)cc1 came out at 118

Just so you know, measured clearance for Cc1ccc(-c2c3c(nc(C)c2C(OC(C)(C)C)C(=O)O)CCN(Cc2ccccc2-c2ccccc2)C3)cc1 (centres undefined) came out at 24

Just so you know, measured clearance for Cc1ccc(-c2c3c(nc(C)c2[C@H](OC(C)(C)C)C(=O)O)CCN(Cc2ccccc2)C3)cc1 came out at 21

Just so you know, measured clearance for Cc1ccc(-c2c3c(nc(C)c2C(OC(C)(C)C)C(=O)O)CCN(CCCC2CCCC2)C3)cc1 (centres undefined) came out at 152

Just so you know, measured clearance for Cc1ccc(-c2c3c(nc(C)c2[C@H](OC(C)(C)C)C(=O)O)CCN(CCCc2ccccc2)C3)cc1 came out at 171

###

assay: Volume of distribution at steady state in rat at 1 mg/kg, iv or 5 mg/kg, po by LC-MS/MS analysis; format: ADME, organism-based; details: in vivo, read-out: Vdss
Outcome label depends on Vd relative to 6 L/kg: at/above gives true (1), below gives false (0).

*Q* Can Cc1nc2c(c(-c3cc(F)c4c(c3C)CCCO4)c1[C@H](OC(C)(C)C)C(=O)O)CN(CCCc1ccc(F)cc1)CC2 be said to have Vd at or above 6 L/kg?
*A* false (0)

*Q* Can Cc1ccc(-c2c3c(nc(C)c2[C@H](OC(C)(C)C)C(=O)O)CCN(C(=O)OCc2ccccc2)C3)cc1 be said to have Vd at or above 6 L/kg?
*A* true (1)

*Q* Can Cc1ccc(-c2c3c(nc(C)c2[C@H](OC(C)(C)C)C(=O)O)CCN(CCCc2ccccc2)C3)cc1 be said to have Vd at or above 6 L/kg?
*A* true (1)

*Q* Can Cc1ccc(-c2c3c(nc(C)c2C(OC(C)(C)C)C(=O)O)CCN(Cc2ccccc2-c2ccccc2)C3)cc1 (centres undefined) be said to have Vd at or above 6 L/kg?
*A* true (1)

*Q* Can Cc1ccc(-c2c3c(nc(C)c2C(OC(C)(C)C)C(=O)O)CCN(CCCC2CCCC2)C3)cc1 (centres undefined) be said to have Vd at or above 6 L/kg?
*A* true (1)

*Q* Can Cc1ccc(-c2c3c(nc(C)c2[C@H](OC(C)(C)C)C(=O)O)CCN(c2ccccc2)C3)cc1 be said to have Vd at or above 6 L/kg?
*A* false (0)

*Q* Can Cc1ccc(-c2c3c(nc(C)c2[C@H](OC(C)(C)C)C(=O)O)CCN(Cc2ccccc2)C3)cc1 be said to have Vd at or above 6 L/kg?
*A* true (1)

*Q* Can Cc1ccc(-c2c3c(nc(C)c2[C@H](OC(C)(C)C)C(=O)O)CCN(C(=O)CCc2ccccc2)C3)cc1 be said to have Vd at or above 6 L/kg?
*A* false (0)
